Overview of reported protein stability index across a group of variants:
B1: SMOC2 (parent)
chain: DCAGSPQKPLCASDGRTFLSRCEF

Variants of: B1
Test: protein stability index of a GFP-peptide fusion (GPS, HEK-293T) (PSI 1-6); higher = more stable;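 further: lentivirally expressed fusions sorted by FACS into six bins by GFP to DsRed ratio, PSI derived from sequencing read proportions per bin multiplied by bin number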
Settings: c terminus: a fixed tail appended
Could you keep your reply to the number by itself?

Solved cases (4 shown):
variant label: C11S
protein stability index: 3.19
//
variant label: P6G
protein stability index: 2.62
//
variant label: R16L
protein stability index: 2.5
//
variant label: D1G
protein stability index: 2.38

Quick one: protein stability index of L10F ?
1.82

Quick one: protein stability index of C22M ?
2.31

Quick one: protein stability index of S20R ?
3.23

Quick one: protein stability index of F24D ?
4.38

Quick one: protein stability index of E23N ?
3.31
